target: BIR2 domain of XIAP (Homo sapiens (Human), UniProt P98170, C202A/C213G); experiment: TR-FRET assay for BIR2: inhibition of binding of XIAP BIR2 domain to Peptide A (SMAC-derived peptide); conditions: read-out: BIR2 IC50
Sequence (P98170 other isoform, or with tags, fused parts or gaps, stated change not applied): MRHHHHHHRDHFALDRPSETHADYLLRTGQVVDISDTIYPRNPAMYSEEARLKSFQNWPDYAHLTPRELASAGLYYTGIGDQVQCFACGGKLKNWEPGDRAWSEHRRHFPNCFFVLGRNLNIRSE
pIC50: −log10 of the molar value. Where a name gives a salt, the structure may show the parent alone.
Outcome label depends on pIC50 relative to 7: at/above gives TRUE, below gives FALSE.

INSERT INTO results (compound, class) VALUES
  ('CN[C@@H](C)C(=O)N[C@H]1COc2ccccc2N(Cc2c(OC)ccc3ccccc23)C1=O [Example 29b]', 'FALSE'),
  ('CN[C@@H](C)C(=O)N[C@H]1COc2c(C(=O)NCc3ccc(C(=O)OC)cc3)cccc2N(Cc2c(OC)ccc3cc(Br)ccc23)C1=O', 'FALSE'),
  ('CN[C@@H](C)C(=O)N[C@H]1COc2ccccc2N(Cc2nn(-c3ccccc3C#N)c3cc(Br)ccc23)C1=O [Example 72, trifluoroacetate]', 'FALSE'),
  ('CN[C@@H](C)C(=O)N[C@H]1COc2ccccc2N(Cc2cc(=O)n(C)c3ccc(F)cc23)C1=O', 'FALSE'),
  ('CN[C@@H](C)C(=O)N[C@H]1COc2ccccc2N(Cc2c(OC)ccc3cc(C(=O)O)ccc23)C1=O [Example 32, trifluoroacetate]', 'TRUE'),
  ('CN[C@@H](C)C(=O)N[C@H]1COc2c(C(=O)O)cccc2N(Cc2c(OC)ccc3cc(C(=O)O)ccc23)C1=O [Example 52, trifluoroacetate]', 'TRUE'),
  ('CC[C@H](NCCO)C(=O)N[C@H]1COc2ccccc2N(Cc2c(OC)ccc3cc(Br)ccc23)C1=O [Example 83, trifluoroacetate]', 'TRUE'),
  ('CN[C@@H](C)C(=O)N[C@@H]1C(=O)N(Cc2c(OC)ccc3cc(Br)ccc23)c2ccc(C)cc2O[C@H]1C [Example 39, trifluoroacetate]', 'TRUE'),
  ('CN[C@@H](C)C(=O)N[C@H]1COc2c(cccc2C(F)(F)F)N(Cc2noc3ccccc23)C1=O [Example 90, hydrochloride]', 'FALSE'),
  ('CN[C@@H](C)C(=O)N[C@H]1COc2c(C(=O)N3CCN(CCCO)CC3)cccc2N(Cc2ccc(Br)c3ccccc23)C1=O', 'FALSE');

----------
This listing pairs molecules with measured pIC50.
target: BIR2 domain of XIAP (Homo sapiens (Human), UniProt P98170, C202A/C213G); test: TR-FRET assay for BIR2: inhibition of binding of XIAP BIR2 domain to Peptide A (SMAC-derived peptide); settings: read-out: BIR2 IC50;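 further: percent inhibition measured across a concentration series of each compound, from which the IC50 was derived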
pIC50: −log10 of the molar value. Counter-ions that a name gives are not always drawn.
experimentalEndpoint: pIC50

INSERT INTO assay_data (molecule, targetdesc, observedresult) VALUES
  ('CCN[C@@H](C)C(=O)N[C@@H]1C(=O)N(Cc2c(C#N)n(-c3ccccc3C#N)c3ccccc23)c2ccccc2O[C@H]1C', 'BIR2 domain of XIAP (Homo sapiens (Human), UniProt P98170, C202A/C213G)', 6.97),
  ('CCN[C@@H](C)C(=O)N[C@@H]1C(=O)N(Cc2nn(-c3ccccc3C#N)c3ccccc23)c2ccccc2O[C@H]1C [Example 74, trifluoroacetate]', 'BIR2 domain of XIAP (Homo sapiens (Human), UniProt P98170, C202A/C213G)', 6.84),
  ('CN[C@@H](C)C(=O)N[C@H]1COc2c(C(=O)NCCC(=O)O)cccc2N(Cc2c(OC)ccc3cc(Br)ccc23)C1=O', 'BIR2 domain of XIAP (Homo sapiens (Human), UniProt P98170, C202A/C213G)', 6.87),
  ('CN[C@@H](C)C(=O)N[C@H]1COc2c(C(=O)O)cccc2N(Cc2c(OC)ccc3cc(Br)ccc23)C1=O [Example 48, trifluoroacetate]', 'BIR2 domain of XIAP (Homo sapiens (Human), UniProt P98170, C202A/C213G)', 7.05);
